Listed here are molecules together with their documented IC50.
Test system: pseudotyped EBOV virus (pHIV-EBOVGP-Fluc)
Format: cell-based, Ebola virus (EBOV)
Conditions: read-out: Anti-EBOV IC50
Experimental readout: IC50 (µM)

1) COC(=O)CCC[C@@H]1[C@H]2CCCN3CCC[C@H](CN1C(=O)c1ccc(Cl)cc1)[C@@H]23 [4b, Methyl 12N-p-chlorobenzoyl sophoridinate]: 39.1
2) COC(=O)CC1C2CCCN3CCCC(CN1Cc1ccc(Cl)c(Cl)c1)C23.Cl.Cl (centres unmarked) [10d]: 10
3) COC(=O)CCCC1C2CCCN3CCCC(CN1S(=O)(=O)c1ccc(Cl)cc1)C23 (centres unmarked): 2.9
4) COC(=O)CCCC1C2CCCN3CCCC(CN1Cc1ccc(Cl)c(Cl)c1)C23.Cl.Cl (centres unmarked): 2.68
5) COC(=O)CC1C2CCCN3CCCC(CN1S(=O)(=O)c1ccc(Cl)cc1)C23.Cl (centres unmarked) [10c]: 26.8
6) O=C(O)CCCC1C2CCCN3CCCC(CN1S(=O)(=O)c1ccc(Cl)cc1)C23 (centres unmarked): 11.4
7) COC(=O)CCCC1C2CCCN3CCCC(CN1Cc1ccc(Cl)cc1)C23.Cl.Cl (centres unmarked): 25.4

Reference source for all entries: paper PMC6089848
